Origin of values: PubChem BioAssay AID1159580

Assay: chemical genetic growth profiling, strain panel (AID 1159580);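 further: tested at 20 µM; growth read once vehicle control cultures reached saturation at 30 °C; 1 = growth at the plate median or of vehicle wells; lower values mean less growth of the strain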
Details: S. cerevisiae deletion strains, growth OD, locus YPL256C, strain CLN2, hits give low values
About 2,000 (36%) of roughly 5,500 compounds were called active. Another 18% or so got no clear call; they are omitted. This is one part of the list.
normalized growth less than 1 is fulfilled; normalized growth greater than or equal to 1 is not fulfilled.

smiles.record	answer.label
N/C(Cn1ccc(C(F)(F)F)n1)=N/OS(=O)(=O)c1cccc(Cl)c1Cl	not fulfilled

Request: Below 1 on normalized growth? Entry C[C@H]1COc2c(N3CCN(C)CC3)c(F)cc3c(=O)c(C(=O)O)cn1c23
Result: fulfilled

Request: Is it true that normalized growth reported for Nc1nc(=S)c2[nH]cnc2[nH]1 is less than 1?
Result: fulfilled

----------
Provide the recorded normalized growth for the entries that follow.
Experiment: chemical genetic growth profiling, strain panel (AID 1159580);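 further: tested at 20 µM; growth read once vehicle control cultures reached saturation at 30 °C; 1 = growth at the plate median or of vehicle wells; lower values mean less growth of the strain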
Details: S. cerevisiae deletion strains, growth OD, locus YKL009W, strain mrt4, hits give low values
The campaign covered roughly 5,500 compounds. About 2,000 (36%) were called active. Not shown: some 18% with an inconclusive outcome. Some of the results follow.
Answers are plain numbers.

Record excerpt, results attached:
compound	normalized growth
CN1CC(CO)=C[C@@H]2c3cccc4[nH]cc(c34)C[C@H]21	1.01
NCCc1cnc[nH]1	1.01
CCC(C)C(=O)O[C@@H]1C[C@@]2(C)[C@H](c3ccoc3)OC(=O)CC23OC2(C)OC34[C@H](OC(=O)C(C)C)[C@@]3(O)[C@@H](OC(=O)C5(C)OC5C)[C@@]5(C)C[C@]3(O)[C@@](C)([C@H]5CC(=O)OC)C14O2 (stereo partly drawn)	0.972
COc1c(N2CCNC(C)C2)c(F)cc2c(=O)c(C(=O)O)cn(C3CC3)c12 (stereo not drawn)	1.02
C[C@H]1COc2c(N3CCN(C)CC3)c(F)cc3c(=O)c(C(=O)O)cn1c23	1.01

// input: 3 compounds below; output: normalized growth for each
1. CCn1cc(C(=O)O)c(=O)c2cc(F)c(N3CCNC(C)C3)c(F)c21 (stereo not drawn)
2. CCC(C)C(=O)OC1CC2(C)C(c3ccoc3)OC(=O)CC23OC2(C)OC34C(OC(=O)C(C)C)C3(O)C(OC(=O)C5(C)OC5C)C5(C)CC3(O)C(C)(C5C(=O)OC)C14O2 (stereo not drawn)
3. CC(=O)Oc1cc(OC(C)=O)c2c(c1)O[C@H](c1ccc(OC(C)=O)c(OC(C)=O)c1)[C@H](OC(C)=O)C2

Result:
1. 0.979
2. 0.994
3. 1.02

----------
Experiment: chemical genetic growth profiling, strain panel (AID 1159580);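 further: tested at 20 µM; growth read once vehicle control cultures reached saturation at 30 °C; 1 = growth at the plate median or of vehicle wells; lower values mean less growth of the strain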
Details: S. cerevisiae deletion strains, growth OD, locus YLR320W, strain mms22, hits give low values
Among all 5,500 compounds or so, about 2,000 (36%) were called active. Not shown: some 18% with an inconclusive outcome. This is one part of the list.
Hi there, I'd appreciate the recorded normalized growth for every entry that follows.
Give bare numbers.

Below: 2 compounds and their reported normalized growth.
compound	normalized growth
COc1cc(CNC(=O)CCCC/C=C/C(C)C)ccc1O	0.995
CCCCCCCCC(=O)NCc1ccc(O)c(OC)c1	0.997

Let's switch to this compound now.
Measured normalized growth, CCC(C)C(=O)O[C@@H]1C[C@@]2(C)[C@H](c3ccoc3)OC(=O)CC23OC2(C)OC34[C@H](OC(=O)C(C)C)[C@@]3(O)[C@@H](OC(=O)C5(C)OC5C)[C@@]5(C)C[C@]3(O)[C@@](C)([C@H]5CC(=O)OC)C14O2 (stereo partly drawn) : 0.999
